# system under test: T1, trastuzumab (Herceptin)
# T1 construct: also called Tmab; not shown: the constant regions
# experimental protocol: dissociation ELISA on covalently immobilised trastuzumab, 500 nM trastuzumab in the buffer

| binder | T1/2, h |
| --- | --- |
| 1F3 (VHH) VHH: EVQLVESGGGLVQAGDSLTLSCAASGRTFSSVAMGWFRQAPGKERKFVANISWNGYSTYYTDSVKGRFTISRDNAKNTVYLQMSSLKPEDTAVYYCAADVRWTGDGHRADYWGQGTQVTVSS | 5.1 |
| 1C3 (VHH) VHH: EVQLVESGGGLVQAGDSLTLSCAASGRTFSSVAMGWFRQAPGKERKFVANISWNGDSTYYTDSVKGRFTISRDNAKNTVYLQMSSLKPEDTAVYYCVADVRWTGDGHRADYWGQGTQVTVSS | 12.1 |
| 1G1 (VHH) VHH: EVQLVESGGGLVQAGDSLTLSCAASGRTFSSVAMGWFRQAPGKERKFVANISWDGGSTYYTDSVKGRFTISRDSAKNTVYLQMSSLKPEDTAVYYCAADVRWTGDGHRADYWGQGTQVTVSS | 12.1 |
| 1G11 (VHH) VHH: EVQLVESGGDLVQAGDSLTLSCAASGRTFSGVAMGWFRQAPGKERKFVANISWNGVSTYYTDSVKGRFTISRDNAKNTVYLQMSSLKPEDTAVYYCAADVRWTGDGHRADYWGQGTQVTVSS | 35.1 |
